self-cleavage kobs at 40 uM GlcN6P overview
B1: glmS ribozyme (parent)
chain: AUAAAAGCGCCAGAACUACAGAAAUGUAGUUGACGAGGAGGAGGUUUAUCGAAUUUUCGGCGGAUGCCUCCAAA

Variants of: B1
test.name: self-cleavage kobs at 40 uM GlcN6P; higher = faster cleavage; RNA array
run.conditions: with glucosamine-6-phosphate
Fewer inactive variants are shown than the library holds.

Worked cases, self-cleavage kobs at 40 uM GlcN6P given:
{"seq": "AUAAAAGCGCCAGAACUACAGAAAUGUAGUUGACGAGGAGGAGGACUAUCGAAUUUUCGGCGGAUGCCUCCAAA [U45A U46C]", "self-cleavage kobs at 40 uM GlcN6P": "0.000726 s⁻¹"}
{"seq": "AUAAAAGCGCCAGAACUACAGAAAUGUAGUUGACCAGGAGGAGGUUUAUCGAAUUUUCAGCGGAUGCCUCCAAA [G35C G59A]", "self-cleavage kobs at 40 uM GlcN6P": "< 1e-05 s⁻¹"}
{"seq": "AUAAAAGCGCCAGAACUACAGAAAUGUAGUUGACGAGGAGGAGGUUUAUCGAAUUGUCCGCGGAUGCCUCCAAA [U56G G59C]", "self-cleavage kobs at 40 uM GlcN6P": "< 1e-05 s⁻¹"}
{"seq": "AUAAAAGCGCCAGAAUUACAGAAAUGUAGUUGACGAGGCGGAGGUUUAUCGAAUUUUCGGCGGAUGCCUCCAAA [C16U A39C]", "self-cleavage kobs at 40 uM GlcN6P": "0.000107 s⁻¹"}
{"seq": "AUAAAAGCGCCAGAACUACAGAAAUGUAGUUGACGAGGAGCAGGUUUAUCGAAUUUUCGGCGGAUGCCACCAAA [G41C U69A]", "self-cleavage kobs at 40 uM GlcN6P": "< 1e-05 s⁻¹"}

API: the following record is the query input.
Param item = AUAAAACCCCCAGAACUACAGAAAUGUAGUCGACGAGGAAGAGGUUUAUCGAAUUUUCGGCGGAUGCCUCCAAA [G7C G9C U31C G40A] ; retrieve measured self-cleavage kobs at 40 uM GlcN6P.
< 1e-05 s⁻¹
